target system: MAPKAP-K2 (Homo sapiens)
procedure text: MAPKAP-K2 enzyme activity inhibition (33P-ATP filter plate kinase assay)
Assay type: biochemical
condition description: MAPKAP-K2 inhibitory activity; assays conducted at typically 1-100 μM
parameter: activity (efficacy against MAPKAP-K2)

Past entries and their recorded results:
>  <molecule>
CCOc1ccc(Nc2c(C)c(N[C@H]3CC[C@H](N)CC3)nc3c(NC)cnn23)cc1 [Compound 437]

>  <data value>
+

$$$$
>  <molecule>
CCOc1cccc(Nc2c(C)c(N[C@H]3CC[C@H](N)CC3)nc3ccnn23)c1 [Compound 81]

>  <data value>
+++

$$$$
>  <molecule>
Cc1c(NC2CCC(N)CC2)nc2ccnn2c1Nc1ccc(OCCC2CCCCN2)cc1 (centres unmarked) [Compound 231]

>  <data value>
++

$$$$
>  <molecule>
CCOc1ccc(Nc2c(C)c(N[C@@H]3CCN(Cc4ccccc4)C3)nc3ccnn23)cc1 [Compound 418]

>  <data value>
++

$$$$

*Q* Item COc1c(N[C@H]2CC[C@H](N)CC2)nc2ccnn2c1Nc1ccc(F)c(Cl)c1 [Compound 172] has what recorded activity (efficacy against MAPKAP-K2)?
*A* ++

*Q* Item Cc1c(N[C@H]2CC[C@H](N)CC2)nc2ccnn2c1Nc1ccc(-c2ccc(CO)cc2)cc1 [Compound 352] has what recorded activity (efficacy against MAPKAP-K2)?
*A* +++

*Q* Item Cc1c(N[C@H]2CC[C@H](N)CC2)nc2ccnn2c1Nc1ccc(-c2cccc(OC(F)(F)F)c2)cc1 [Compound 316] has what recorded activity (efficacy against MAPKAP-K2)?
*A* +++

*Q* Item CCOc1ccc(Nc2cc(N[C@H]3CC[C@H](N)CC3)nc3c(C#N)cnn23)cc1 [Compound 64] has what recorded activity (efficacy against MAPKAP-K2)?
*A* +++

====

target system: UniProtKB P49137
procedure text: MAPKAP-K2 enzyme activity inhibition (33P-ATP filter plate kinase assay)
Type: biochemical
condition description: MAPKAP-K2 inhibitory activity; assays conducted at typically 1-100 μM
parameter: activity (efficacy against MAPKAP-K2)

Past entries and their recorded results:
>  <compound>
Cc1c(N[C@H]2CC[C@H](N)CC2)nc2ccnn2c1Nc1ccc(-c2cccc(O)c2)cc1

>  <activity (efficacy against MAPKAP-K2)>
+++

$$$$
>  <compound>
Cc1c(N[C@H]2CC[C@H](N)CC2)nc2ccnn2c1Nc1ccc(-c2ccccc2)cc1

>  <activity (efficacy against MAPKAP-K2)>
+++

$$$$
>  <compound>
Cc1c(N[C@H]2CC[C@H](N)CC2)nc2ccnn2c1Nc1ccc(OCCC2CCCCC2)cc1

>  <activity (efficacy against MAPKAP-K2)>
++

$$$$
>  <compound>
CCc1c(N[C@H]2CC[C@H](N)CC2)nc2ccnn2c1Nc1ccc(Br)cc1

>  <activity (efficacy against MAPKAP-K2)>
+++

$$$$
>  <compound>
Cc1c(N[C@H]2CC[C@H](N)CC2)nc2ccnn2c1Nc1ccc(OCc2ccccn2)cc1

>  <activity (efficacy against MAPKAP-K2)>
+++

$$$$

*Q* API: value(readout= activity (efficacy against MAPKAP-K2), system= UniProtKB P49137, query= `CCCCOc1ccc(Nc2c(CCCO)c(N[C@H]3CC[C@H](N)CC3)nc3ccnn23)cc1` )
*A* +++

*Q* API: value(readout= activity (efficacy against MAPKAP-K2), system= UniProtKB P49137, query= `Cc1c(N[C@H]2CC[C@H](N)CC2)nc2ccnn2c1Nc1ccc(-c2ccc(C(F)(F)F)cc2)cc1` )
*A* +++

*Q* API: value(readout= activity (efficacy against MAPKAP-K2), system= UniProtKB P49137, query= `Cc1c(N[C@H]2CC[C@H](N)CC2)nc2ccnn2c1Nc1ccc(OCC2CCCCC2)cc1` )
*A* ++

*Q* API: value(readout= activity (efficacy against MAPKAP-K2), system= UniProtKB P49137, query= `Cc1c(N[C@H]2CC[C@H](N)CC2)nc2ccnn2c1Nc1ccc(O)cc1` )
*A* +++

*Q* API: value(readout= activity (efficacy against MAPKAP-K2), system= UniProtKB P49137, query= `N[C@H]1CC[C@H](Nc2cc(Nc3ccc(F)c(Cl)c3)n3ncc(Br)c3n2)CC1` )
*A* ++

*Q* API: value(readout= activity (efficacy against MAPKAP-K2), system= UniProtKB P49137, query= CCc1c(NC2CCCNC2)nc2ccnn2c1Nc1ccc(Br)cc1 (stereo not shown) )
*A* ++

*Q* API: value(readout= activity (efficacy against MAPKAP-K2), system= UniProtKB P49137, query= `Cc1c(N[C@H]2CC[C@H](N)CC2)nc2ccnn2c1Nc1cccc(Cl)c1` )
*A* +++

*Q* API: value(readout= activity (efficacy against MAPKAP-K2), system= UniProtKB P49137, query= `Cc1c(N[C@H]2CC[C@H](N)CC2)nc2ccnn2c1Nc1ccc(-c2ccoc2)cc1` )
*A* +++

*Q* API: value(readout= activity (efficacy against MAPKAP-K2), system= UniProtKB P49137, query= `Cc1c(N[C@H]2CC[C@H](N)CC2)nc2c(C(=O)C(F)(F)F)cnn2c1Nc1ccc(I)cc1` )
*A* +

*Q* API: value(readout= activity (efficacy against MAPKAP-K2), system= UniProtKB P49137, query= `Cc1c(N[C@H]2CC[C@H](N)CC2)nc2ccnn2c1Nc1ccc(-c2cccnc2)cc1` )
*A* +++

*Q* API: value(readout= activity (efficacy against MAPKAP-K2), system= UniProtKB P49137, query= `CCCCOc1ccc(Nc2c(CC)c(N[C@H]3CC[C@H](N)CC3)nc3ccnn23)cc1` )
*A* +++

====

target system: UniProt P49137
procedure text: MAPKAP-K2 enzyme activity inhibition (33P-ATP filter plate kinase assay)
Format: biochemical
condition description: MAPKAP-K2 inhibitory activity; assays conducted at typically 1-100 μM
parameter: activity (efficacy against MAPKAP-K2)

Past entries and their recorded results:
>  <compound>
Cc1c(NC2CCC(N)CC2)nc2ccnn2c1Nc1ccc(OCC2CCCN(C)C2)cc1 (centres unmarked)

>  <activity (efficacy against MAPKAP-K2)>
+++

$$$$
>  <compound>
CCCc1c(N[C@H]2CC[C@H](N)CC2)nc2ccnn2c1Nc1ccc(F)c(Cl)c1

>  <activity (efficacy against MAPKAP-K2)>
+++

$$$$
>  <compound>
Cc1c(N[C@H]2CC[C@H](N)CC2)nc2ccnn2c1Nc1ccc(-c2cccc(CO)c2)cc1

>  <activity (efficacy against MAPKAP-K2)>
+++

$$$$
>  <compound>
CCc1c(N[C@H]2CC[C@H](N)CC2)nc2ccnn2c1Nc1ccc(OC)cc1

>  <activity (efficacy against MAPKAP-K2)>
+++

$$$$
>  <compound>
CCOc1ccc(Nc2c(C)c(N[C@H]3CC[C@H](N)CC3)nc3c(NC(=O)Nc4ccccc4)cnn23)cc1

>  <activity (efficacy against MAPKAP-K2)>
++

$$$$
>  <compound>
Cc1c(N[C@H]2CC[C@H](N)CC2)nc2ccnn2c1Nc1ccc(OC(F)(F)F)cc1

>  <activity (efficacy against MAPKAP-K2)>
+++

$$$$
>  <compound>
CCCC1CCNCC1Nc1nc2ccnn2c(Nc2ccc(OCC)cc2)c1C (racemic)

>  <activity (efficacy against MAPKAP-K2)>
++

$$$$
>  <compound>
CCc1c(N[C@H]2CC[C@H](N)CC2)nc2ccnn2c1Nc1ccc(N2CCCC2=O)cc1

>  <activity (efficacy against MAPKAP-K2)>
++

$$$$
>  <compound>
Cc1c(N[C@H]2CC[C@H](N)CC2)nc2ccnn2c1Nc1ccc(C(=O)NCc2ccco2)cc1

>  <activity (efficacy against MAPKAP-K2)>
+++

$$$$
>  <compound>
Cc1c(N[C@H]2CC[C@H](N)CC2)nc2ccnn2c1Nc1cccc(OCc2cccnc2)c1

>  <activity (efficacy against MAPKAP-K2)>
++

$$$$

*Q* Item `Cc1c(N[C@H]2CC[C@H](N)CC2)nc2ccnn2c1Nc1ccc(OCCCl)cc1` has what recorded activity (efficacy against MAPKAP-K2)?
*A* +++

*Q* Item `Cc1c(N[C@H]2CC[C@H](N)CC2)nc2ccnn2c1Nc1ccc(-c2cc3ccccc3[nH]2)cc1` has what recorded activity (efficacy against MAPKAP-K2)?
*A* +++

====

target system: MAPKAP-K2 (Homo sapiens, UniProt P49137)
Sequence (P49137 whole entry): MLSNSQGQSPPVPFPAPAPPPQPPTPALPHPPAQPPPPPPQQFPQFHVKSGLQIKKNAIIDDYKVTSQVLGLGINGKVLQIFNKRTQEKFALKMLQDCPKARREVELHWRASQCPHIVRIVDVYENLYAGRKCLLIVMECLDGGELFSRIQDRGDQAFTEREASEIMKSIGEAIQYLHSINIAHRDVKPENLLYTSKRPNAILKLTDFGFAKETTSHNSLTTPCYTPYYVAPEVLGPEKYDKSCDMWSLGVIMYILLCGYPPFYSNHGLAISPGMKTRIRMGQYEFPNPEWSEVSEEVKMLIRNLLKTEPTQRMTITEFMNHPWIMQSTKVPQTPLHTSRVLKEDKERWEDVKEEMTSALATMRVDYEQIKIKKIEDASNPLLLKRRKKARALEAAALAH
procedure text: MAPKAP-K2 enzyme activity inhibition (33P-ATP filter plate kinase assay); also: key: +: active; ++: more active; +++: very active
Format: biochemical
condition description: MAPKAP-K2 inhibitory activity; assays conducted at typically 1-100 μM
parameter: activity (efficacy against MAPKAP-K2)

Past entries and their recorded results:
>  <structure smiles string>
Cc1c(N[C@H]2CC[C@H](N)CC2)nc2ccnn2c1Nc1ccc(OCCc2ccccn2)cc1

>  <target system>
MAPKAP-K2 (Homo sapiens, UniProt P49137)

>  <parameter>
activity (efficacy against MAPKAP-K2)

>  <data value>
+++

$$$$
>  <structure smiles string>
Cc1c(N[C@H]2CC[C@H](N)CC2)nc2ccnn2c1Nc1ccc(-c2ccc(O)cc2)cc1

>  <target system>
MAPKAP-K2 (Homo sapiens, UniProt P49137)

>  <parameter>
activity (efficacy against MAPKAP-K2)

>  <data value>
+++

$$$$
>  <structure smiles string>
CCS(=O)(=O)c1ccc(-c2ccc(Nc3c(C)c(N[C@H]4CC[C@H](N)CC4)nc4ccnn34)cc2)cc1

>  <target system>
MAPKAP-K2 (Homo sapiens, UniProt P49137)

>  <parameter>
activity (efficacy against MAPKAP-K2)

>  <data value>
+++

$$$$
>  <structure smiles string>
CCc1c(N[C@H]2CC[C@H](N)CC2)nc2ccnn2c1Nc1ccc(OCc2ccccc2)cc1

>  <target system>
MAPKAP-K2 (Homo sapiens, UniProt P49137)

>  <parameter>
activity (efficacy against MAPKAP-K2)

>  <data value>
+++

$$$$

Here is another compound to look at.
*Q* API: value(readout= activity (efficacy against MAPKAP-K2), system= MAPKAP-K2 (Homo sapiens, UniProt P49137), query= `CCc1c(N[C@H]2CC[C@H](N)CC2)nc2ccnn2c1Nc1ccc(I)cc1` )
*A* ++
